Each record here notes measured self-cleavage.
B1: CPEB3 Ribozyme (parent)
chain: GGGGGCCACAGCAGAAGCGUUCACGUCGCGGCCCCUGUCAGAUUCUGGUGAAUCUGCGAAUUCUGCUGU

# Variants of: B1
# PROTOCOL: self-cleavage, relative activity (ratio to wild type); higher = more cleavage; co-transcriptional
Could you keep your reply to the number by itself?

Worked examples follow.
[[record]]
mutation_name = "C22U G41C"
measured_value = 0.117

[[record]]
mutation_name = "U46G G50A"
measured_value = 0.981

[[record]]
mutation_name = "G2A G3U"
measured_value = 0.0425

[[record]]
mutation_name = "G14U U62C"
measured_value = 0.364

[[record]]
mutation_name = "C22U G30C"
measured_value = 0.181

[[record]]
mutation_name = "G50A U62C"
measured_value = 0.949


Notebook: A16C C34G , self-cleavage read as 0.168

Notebook: G30A U46C , self-cleavage read as 0.866

Notebook: G14U C66A , self-cleavage read as 0.374

Notebook: G50C C63A , self-cleavage read as 0.813

Notebook: G19U A60G , self-cleavage read as 0.289

Notebook: C6A C27A , self-cleavage read as 0.154

Notebook: G14C C57U , self-cleavage read as 0.28
